The following molecules are shown together with reported pIC50 values.
# System: prostaglandin E2 production in synovial cultures
# Test: PGE2 formation in cultured human synovial fibroblasts during overnight IL-1 priming
# Type: cell-based
# Setup conditions: Fibroblast, co-incubation with IL-1 (10 U/ml), 16 hr, mean±SEM
Worth noting: pIC50 values are minus log10 of concentrations stated in mol/L.

[[record]]
molecule = "COc1ccc2c(c1)c(CC(=O)O)c(C)n2C(=O)c1ccc(Cl)cc1 [indomethacin]"
measured = 8.49

[[record]]
molecule = "O=C(c1ccccc1)c1ccc2n1CCC2C(=O)O (stereo not shown) [ketorolac]"
measured = 8.66

[[record]]
molecule = "CC(C(=O)O)c1cccc(C(=O)c2ccccc2)c1 (stereo not shown) [ketoprofen]"
measured = 8.35


What value of pIC50 has been recorded for this entry: CCc1cccc2c3c([nH]c12)C(CC)(CC(=O)O)OCC3 (stereo not shown) [etodolac]
7.82
